- System: OVCAR-4 ovarian
- experiment summary: NCI-60 one-dose screen, 48 h (100 = growth as untreated, 0 = no growth, -100 = all killed)
- experimental conditions: 10 µM unless noted
The panel holds about 83,000 compounds, 20% with a hit somewhere; the sample as a whole holds those more often.
Label scheme for growth: lower band: < 50%; central band: ≥ 50% and < 90%; upper band: ≥ 90%

Solved entries:
compound	label value
ClCCN(CCCl)c1nc(Cl)c(C2CC(c3ccccc3)=NN2c2cc(Cl)cc(Cl)c2)s1 (centres undefined)	upper band
O=C(CCCCCCC(=O)Nc1ccc(N(CCCl)CCCl)cc1)NO	lower band
COc1ccc(/C=C/c2cc(OC)c(OC)c(OC)c2)cc1NC(=O)/C=C/c1ccc(F)cc1	central band
CC[C@H](C)[C@H](NC(=O)c1ccccn1)C(=O)N(C)[C@H](C[C@@H](OC(C)=O)c1nc(C(=O)N[C@@H](Cc2ccccc2)C[C@H](C)C(=O)OC)cs1)C(C)C	lower band
CC12CCC3C(CCC4Cc5[nH]c6ccccc6c5CC43C)C1CCC2O (centres undefined)	central band
O=C(NCCN1CC1)C(=O)NCCN1CC1	upper band

Band assignment needed for `CC(=O)O[C@H]1CC[C@H]2[C@@H]3CC=C4c5nc(-c6ccccc6)sc5CC[C@]4(C)[C@H]3CC[C@]12C` please.
central band

Ok, now `O=C(N/N=C\c1ccc(N(CCCl)CCCl)cc1Cl)c1cccnc1`
central band

###

growth by entry:
- Test system: NCI-H322M lung
- experiment summary: NCI-60 one-dose screen, 48 h (100 = growth as untreated, 0 = no growth, -100 = all killed)
- experimental conditions: 10 µM unless noted
Compounds without any hit were thinned out: in the full panel of roughly 83,000, 20% have a hit.
Your answer should be a plain number; it is taken to be in %.

Worked examples follow.
compound	assay target	growth / %
COc1cc(C=Nc2cc(Cl)cc(Cl)c2)ccc1N(CCCl)CCCl	NCI-H322M lung	92.8
CCN(CC)CCOC(=O)C(OC(C)C)(c1ccccc1)c1ccccc1	NCI-H322M lung	99.6
COc1ccc(N(CC(=O)NCCC[Te]c2ccccc2)C(=O)CCSC2=C(C)C(=O)c3ccccc3C2=O)cc1	NCI-H322M lung	2.85
COc1ccc(/C=C\c2cc(OC)c(OC)c(OC)c2)cc1OCC(=O)Nc1nc2ccc(C(F)(F)F)cc2s1	NCI-H322M lung	64.7
CC(=O)OCC1O[C@@H]([S-])C(OC(C)=O)[C@H](OC(C)=O)[C@@H]1OC(C)=O.[Au+].c1ccc(CN2[CH-]N(Cc3ccccc3)C(c3ccccc3)=C2c2ccccc2)cc1	NCI-H322M lung	82.7

Requested field: growth. Item: CN1CCC(c2c[nH]c3ccccc23)C1 (centres undefined)
118

Consider next the compound `CN(C)C(=O)Oc1ccc(Br)cc1` in the same way.
86.1

Param item: `C1CCC2(CC1)OOCNCOO2`
97.4

###

- Test system: NCI-H460 lung
- experiment summary: NCI-60 one-dose screen, 48 h
- experimental conditions: 10 µM unless noted
The panel holds about 83,000 compounds, 20% with a hit somewhere; the sample as a whole holds those more often. Activity calls are given as the source filed them. Rule for the calls: active = growth percent below 10; inactive = the rest.
Log the outcome using a class from active, inactive

# count of solved cases: 3
molecule	assay target	label value
Nc1ccc(Cl)cc1	NCI-H460 lung	inactive
O=[N+]([O-])CC(c1ccccc1Cl)c1c(-c2ccccc2)[nH]c2ccccc12 (centres undefined)	NCI-H460 lung	inactive
CC[S][Hg][Cl]	NCI-H460 lung	inactive

Hi team, can someone confirm the assay call for CCCCCCCCCCCCNC(c1ccccc1)C(O)c1ccccc1 (centres undefined) ?
inactive

Lookup `O=C(CCl)c1ccc([N+](=O)[O-])o1`
inactive

Would you kindly repeat that for `COC(=O)[C@@H](C)C[C@H](Cc1ccccc1)NC(=O)c1csc([C@@H](C[C@H](C(C)C)N(C)C(=O)[C@@H](NC(=O)[C@H]2CCCCN2C)C(C)C)OC(C)=O)n1` ?
active

Please answer likewise for `CCOC(=O)N[C@H]1CCc2c(Br)c(OC)c(OC)c(OC)c2-c2ccc(SC)c(=O)cc21`
active
